# target_under_test: HLA-A*02:01
# assay_summary: IEDB peptide-MHC binding, purified MHC/direct/fluorescence; filed as Kd, often an IC50 or EC50 that approximates it; bounds were set here for any values at or beyond the usual limits of such assays
# condition_info: source organism: Cryptosporidium parvum
measured_parameter: Kd

Req: Please state recorded Kd (tested on HLA-A*02:01) of NTSTCFQEY
Resp: ≥ 20 µM

---

# target_under_test: HLA-B*57:01
# assay_summary: IEDB peptide-MHC binding, purified MHC/competitive/fluorescence; filed as Kd, often an IC50 or EC50 that approximates it; bounds were set here for any values at or beyond the usual limits of such assays
# condition_info: source organism: Homo sapiens
Reported Kd is given for each of the following sequences.

Req: Given the entry VVPSYIPLV , report its measured Kd.
Resp: ≥ 20 µM

Req: Given the entry HLLCQAFSV , report its measured Kd.
Resp: ≥ 20 µM

Reference source for all entries: the Immune Epitope Database (IEDB)
